Biological target: mouse ACVR2A (mouse, UniProt P27038 20-135, limits assumed); further: test concentration or dose not given here
Sequence (P27038 20-135 limits assumed): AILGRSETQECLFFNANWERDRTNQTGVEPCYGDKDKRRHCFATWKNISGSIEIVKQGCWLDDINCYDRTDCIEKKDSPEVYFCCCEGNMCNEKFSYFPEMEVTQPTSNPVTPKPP
Assay: ELISA
Listed binders paired with reported optical density
Enter your answer as a number in OD; do not include the unit.

Reported optical density for 369_C11 (antibody, V domains shown, Group II) VH: EVQLLESGGGLVQPGGSLRLSCAASGFTFSDYGMHWVRQAPGKGLEWVAGINYNGGYTGYADSVKGRFTISRDNSKNTLYLQMNSLRAEDTAVYYCARAATWHDTHLDYWGQGTLVTVSS VL: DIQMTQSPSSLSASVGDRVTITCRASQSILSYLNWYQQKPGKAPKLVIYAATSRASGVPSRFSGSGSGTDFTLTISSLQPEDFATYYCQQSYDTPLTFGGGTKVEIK : what is it?
2.91

Form field: reported optical density of 371_C02 (antibody, V domains shown, Group II) VH: EVQLLESGGGLVQPGGSLRLSCAASGFTFDSYGMHWVRQAPGKGLEWVAGINYNSGYTGYADSVKGRFTISRDNSKNTLYLQMNSLRAEDTAVYYCARAATWHDTHLDYWGQGTLVTVSS VL: DIQMTQSPSSLSASVGDRVTITCRASQSILTYVNWYQQKPGKAPKLLIYAASSLQSGVPSRFSGSGSGTDFTLTISSLQPEDFATYYCQQSYDTPLTFGGGTKVEIK
2.88

Param item = 366_H01 (antibody, V domains shown, Group II) VH: EVQLLESGGGLVQPGGSLRLSCAASGFTFDDYSMHWVRQAPGKGLEWVANINYNGGYTSYADSVKGRFTISRDNSKNTLYLQMNSLRAEDTAVYYCARAATWHDTHLDYWGQGTLVTVSS VL: DIQMTQSPSSLSASVGDRVTITCRASQSILTYLNWYQQKPGKAPKLVIYATTSRHSGVPSRFSGSGSGTDFTLTISSLQPEDFATYYCQQSYESPLTFGGGTKVEIK ; retrieve measured optical density.
2.77

# optical density lookup, item 366_B09 (antibody, V domains shown, Group II) VH: EVQLLESGGGLVQPGGSLRLSCAASGFTFSDYGMHWVRQAPGKGLEWVSSINYNSGYKSYADSVKGRFTISRDNSKNTLYLQMNSLRAEDTAVYYCARAATWHDTHLDYWGQGTLVTVSS VL: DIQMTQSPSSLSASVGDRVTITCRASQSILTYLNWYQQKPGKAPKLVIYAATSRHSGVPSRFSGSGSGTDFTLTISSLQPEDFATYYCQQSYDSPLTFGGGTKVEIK
2.53

Where these numbers come from: patent US20210380703A1
